The reported measurements were obtained from patent US20200223910A1.

Some binders, each annotated with its measured % inhibition of HTRF signal.
- target-entity: T1, human TNC rCd4-His-FBG (rat; human, UniProt P05540 209-391; P24821 1974-2201, limits assumed)
- T1 construct: domain: domains 3 and 4;domain: FBG; C-terminal FBG fusion made in HEK293F cells; biotinylated in the ELISA and HTRF assays; also called Hu TNC; hTNC; not shown: 6His tag
- T1 sequence (chain (part 1 of 2), looked up): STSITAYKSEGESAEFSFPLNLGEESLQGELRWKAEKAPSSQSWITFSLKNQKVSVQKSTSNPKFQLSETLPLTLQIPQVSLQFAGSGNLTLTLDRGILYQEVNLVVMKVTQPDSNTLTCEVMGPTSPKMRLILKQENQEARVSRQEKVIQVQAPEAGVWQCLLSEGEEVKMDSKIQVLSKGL
- T1 sequence (chain (part 2 of 2), looked up): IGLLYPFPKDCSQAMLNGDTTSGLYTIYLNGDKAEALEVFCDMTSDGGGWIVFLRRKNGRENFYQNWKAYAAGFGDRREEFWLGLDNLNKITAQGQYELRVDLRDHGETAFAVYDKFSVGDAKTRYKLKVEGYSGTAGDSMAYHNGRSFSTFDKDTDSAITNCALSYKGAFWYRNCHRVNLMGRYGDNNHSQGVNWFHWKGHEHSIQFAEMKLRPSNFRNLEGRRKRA
- test: HTRF competition, scFv supernatant; competitor d2-labelled B12 IgG

Examples with answers:
Lab note: measured % inhibition of HTRF signal of 165_13_B3 scFv (scFv, V domains shown, scFv in E. coli supernatant) VH: QVQLVESGGGLVQPGRSLRLSCAASGFTFDDYAMHWVRQAPGKGLEWVSGISGSGGSTYYADSVKGRFTISRDNAKNSLYLQMNSLRAEDTALYYCAKALARGHDTFDIWGQGTMVTVSS VL: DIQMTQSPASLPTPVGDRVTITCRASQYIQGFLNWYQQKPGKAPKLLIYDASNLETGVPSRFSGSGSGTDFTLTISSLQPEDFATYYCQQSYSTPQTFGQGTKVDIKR was ≥ 91%

Lab note: measured % inhibition of HTRF signal of 165_13_E1 scFv (scFv, V domains shown, scFv in E. coli supernatant) VH: QVQLVESGGGLVQPGRSLRLSCAASGFTFDDYAMHWVRQAPGKGLEWVSGISGSGGSTYYADSVKGRFTISRDNAKNSLYLQMNSLRAEDTALYYCAKDISAVMDVPQTWGQGTMVTVSS VL: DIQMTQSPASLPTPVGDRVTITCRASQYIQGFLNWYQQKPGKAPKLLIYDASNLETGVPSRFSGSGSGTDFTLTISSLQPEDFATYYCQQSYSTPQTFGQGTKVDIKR was ≥ 91%

Next item in the queue.
Lab note: measured % inhibition of HTRF signal of 165_13_D4 scFv (scFv, V domains shown, scFv in E. coli supernatant) VH: QVQLVESGGGLVQPGRSLRLSCAASGFTFDDYAMHWVRQAPGKGLEWVSGISGSGGSTYYADSVKGRFTISRDNAKNSLYLQMNSLRAEDTALYYCAKGTVGEGDTFDIWGQGTMVTVSS VL: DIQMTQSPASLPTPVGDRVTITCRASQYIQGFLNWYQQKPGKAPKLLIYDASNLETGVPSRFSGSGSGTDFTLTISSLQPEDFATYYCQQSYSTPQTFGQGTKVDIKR was ≥ 91%
